biological target: ABL1(F317L)-nonphosphorylated (Homo sapiens, UniProt P00519, F317L); construct: purchased Eurofins DiscoverX KINOMEscan (scanTK); test: KINOMEscan ScanTK; assay type: binding; conditions: @1000nM
measured property: difference in % of control binding versus compound Ib at 1 µM
Hey, just the number and the unit after it is fine.

// solved cases for difference in % of control binding versus compound Ib at 1 µM follow
>>> test_value("CNC(=O)c1cnc(S(C)(=O)=O)nc1N1CCCC(n2nc(-c3ccc(Oc4ccccc4)cc3)c3c(N)ncnc32)C1 (stereo not shown)")
"22%"
>>> test_value("Cc1cnc(S(C)(=O)=O)nc1N1CCCC(n2nc(-c3ccc(Oc4ccccc4)cc3)c3c(N)ncnc32)C1 (stereo not shown)")
"44%"
>>> test_value("COC(=O)c1cnc(S(C)(=O)=O)nc1N1CCCC(n2nc(-c3ccc(Oc4ccccc4)cc3)c3c(N)ncnc32)C1 (stereo not shown)")
"38%"

Here's the next entry for you.
Asked: Retrieve difference in % of control binding versus compound Ib at 1 µM measured for CCOC(=O)c1cnc(S(C)(=O)=O)nc1N1CCC[C@@H](n2nc(-c3ccc(Oc4ccccc4)cc3)c3c(N)ncnc32)C1 and print it.
Given back: 58%

* * *

target: FAK (Homo sapiens, UniProt Q05397); construct: purchased Eurofins DiscoverX KINOMEscan (scanTK); assay: KINOMEscan ScanTK; type: binding; conditions: read-out: %Control @1000nM
Sequence (Q05397 whole entry): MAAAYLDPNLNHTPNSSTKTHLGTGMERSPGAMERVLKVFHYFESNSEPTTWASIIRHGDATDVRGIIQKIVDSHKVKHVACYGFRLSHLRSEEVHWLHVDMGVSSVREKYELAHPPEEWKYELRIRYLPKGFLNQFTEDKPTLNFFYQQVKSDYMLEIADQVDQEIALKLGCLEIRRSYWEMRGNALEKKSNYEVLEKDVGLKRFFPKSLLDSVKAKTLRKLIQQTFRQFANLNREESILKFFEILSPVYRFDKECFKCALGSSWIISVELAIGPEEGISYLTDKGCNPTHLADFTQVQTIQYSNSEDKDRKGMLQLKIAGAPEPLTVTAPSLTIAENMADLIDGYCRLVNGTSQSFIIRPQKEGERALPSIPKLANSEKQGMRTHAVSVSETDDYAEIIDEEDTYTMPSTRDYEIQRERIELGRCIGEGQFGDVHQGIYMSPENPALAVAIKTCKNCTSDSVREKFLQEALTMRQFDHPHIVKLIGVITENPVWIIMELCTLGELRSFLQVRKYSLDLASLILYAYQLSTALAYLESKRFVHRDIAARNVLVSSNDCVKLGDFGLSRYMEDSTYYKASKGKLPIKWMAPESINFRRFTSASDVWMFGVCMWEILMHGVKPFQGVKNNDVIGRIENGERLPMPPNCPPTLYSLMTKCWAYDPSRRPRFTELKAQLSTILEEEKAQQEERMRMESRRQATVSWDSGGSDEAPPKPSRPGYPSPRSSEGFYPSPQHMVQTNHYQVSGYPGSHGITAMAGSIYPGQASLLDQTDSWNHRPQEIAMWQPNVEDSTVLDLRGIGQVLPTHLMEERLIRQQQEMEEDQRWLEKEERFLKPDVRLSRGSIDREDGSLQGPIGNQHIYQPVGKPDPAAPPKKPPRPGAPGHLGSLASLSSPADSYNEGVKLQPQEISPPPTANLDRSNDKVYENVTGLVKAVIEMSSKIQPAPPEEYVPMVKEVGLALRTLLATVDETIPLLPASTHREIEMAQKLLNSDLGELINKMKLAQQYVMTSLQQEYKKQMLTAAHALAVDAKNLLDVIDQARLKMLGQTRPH
measured property: remaining binding at 1 µM (%)
Give the number; % is assumed, so skip it.

# annotated cases, reported remaining binding at 1 µM shown
>>> test_value("C=CC(=O)N1CCC[C@@H](n2nc(-c3ccc(Oc4ccccc4)cc3)c3c(N)ncnc32)C1 [Compound 1g, Ibrutinib, reference compound]")
100
>>> test_value("Cc1cnc(S(C)(=O)=O)nc1N1CCCC(n2nc(-c3ccc(Oc4ccccc4)cc3)c3c(N)ncnc32)C1 (centres unmarked)")
99
>>> test_value("COC(=O)c1cnc(S(C)(=O)=O)nc1N1CCCC(n2nc(-c3ccc(Oc4ccccc4)cc3)c3c(N)ncnc32)C1 (centres unmarked)")
100
>>> test_value("CCOC(=O)c1cnc(S(C)(=O)=O)nc1N1CCC[C@@H](n2nc(-c3ccc(Oc4ccccc4)cc3)c3c(N)ncnc32)C1")
96

Turning now to a further record.
Asked: Output measured remaining binding at 1 µM for this item: CNC(=O)c1cnc(S(C)(=O)=O)nc1N1CCCC(n2nc(-c3ccc(Oc4ccccc4)cc3)c3c(N)ncnc32)C1 (centres unmarked)
Given back: 100

* * *

biological target: ABL1(H396P)-phosphorylated (Homo sapiens, UniProt P00519, H396P); construct: purchased Eurofins DiscoverX KINOMEscan (scanTK); assay: KINOMEscan ScanTK; assay type: binding; settings: @1000nM
measured property: %Control difference versus compound Ib at 1 µM (%)
Reply numerically in %, unit not repeated.

>>> test_value("CNC(=O)c1cnc(S(C)(=O)=O)nc1N1CCCC(n2nc(-c3ccc(Oc4ccccc4)cc3)c3c(N)ncnc32)C1 (stereo not shown) [Compound 8d]")
-1

Asked: Provide measured %Control difference versus compound Ib at 1 µM value, entry: Cc1cnc(S(C)(=O)=O)nc1N1CCCC(n2nc(-c3ccc(Oc4ccccc4)cc3)c3c(N)ncnc32)C1 (stereo not shown) [Compound 8a]
Given back: 4

Asked: Note %Control difference versus compound Ib at 1 µM for the molecule shown: COC(=O)c1cnc(S(C)(=O)=O)nc1N1CCCC(n2nc(-c3ccc(Oc4ccccc4)cc3)c3c(N)ncnc32)C1 (stereo not shown) [Compound 8b]
Given back: 12

Asked: Report %Control difference versus compound Ib at 1 µM for CCOC(=O)c1cnc(S(C)(=O)=O)nc1N1CCC[C@@H](n2nc(-c3ccc(Oc4ccccc4)cc3)c3c(N)ncnc32)C1 [Compound 8c]
Given back: -3

* * *

molecular target: TNK2 (Homo sapiens); construct: purchased Eurofins DiscoverX KINOMEscan (scanTK); assay: KINOMEscan ScanTK; format: binding; conditions: @1000nM, read-out: %Control
Sequence (Q07912 whole entry): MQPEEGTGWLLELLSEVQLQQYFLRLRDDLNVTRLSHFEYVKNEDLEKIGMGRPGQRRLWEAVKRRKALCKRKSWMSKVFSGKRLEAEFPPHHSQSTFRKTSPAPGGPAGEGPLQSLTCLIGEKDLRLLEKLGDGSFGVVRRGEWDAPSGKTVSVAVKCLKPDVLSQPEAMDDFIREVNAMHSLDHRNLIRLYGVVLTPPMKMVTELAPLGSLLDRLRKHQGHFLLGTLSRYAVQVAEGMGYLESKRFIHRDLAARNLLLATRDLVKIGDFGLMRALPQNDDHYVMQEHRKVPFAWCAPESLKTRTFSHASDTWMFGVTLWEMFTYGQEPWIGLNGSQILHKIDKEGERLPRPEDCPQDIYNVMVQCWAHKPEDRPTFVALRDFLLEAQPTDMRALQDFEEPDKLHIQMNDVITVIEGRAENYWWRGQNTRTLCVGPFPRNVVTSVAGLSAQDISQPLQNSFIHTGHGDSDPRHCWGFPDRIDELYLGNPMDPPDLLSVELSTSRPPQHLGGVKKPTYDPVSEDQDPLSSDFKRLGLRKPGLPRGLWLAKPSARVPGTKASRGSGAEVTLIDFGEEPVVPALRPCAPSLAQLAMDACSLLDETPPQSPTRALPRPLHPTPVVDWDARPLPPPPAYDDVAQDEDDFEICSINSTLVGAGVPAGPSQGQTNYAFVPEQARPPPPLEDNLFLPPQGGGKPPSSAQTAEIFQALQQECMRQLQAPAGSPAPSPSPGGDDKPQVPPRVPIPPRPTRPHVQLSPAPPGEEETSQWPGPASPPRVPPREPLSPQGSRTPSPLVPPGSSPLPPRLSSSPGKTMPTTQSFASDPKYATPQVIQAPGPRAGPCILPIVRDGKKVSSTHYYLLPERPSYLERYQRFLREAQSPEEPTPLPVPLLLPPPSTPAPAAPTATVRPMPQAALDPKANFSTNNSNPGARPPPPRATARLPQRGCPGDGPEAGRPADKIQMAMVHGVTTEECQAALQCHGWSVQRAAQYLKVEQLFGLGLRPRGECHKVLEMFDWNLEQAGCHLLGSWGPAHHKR
# remaining binding at 1 µM annotations
Use % as the unit, but write only the number.

Below, 2 compounds whose answers are already recorded.
>>> test_value("CCOC(=O)c1cnc(S(C)(=O)=O)nc1N1CCC[C@@H](n2nc(-c3ccc(Oc4ccccc4)cc3)c3c(N)ncnc32)C1")
94
>>> test_value("CNC(=O)c1cnc(S(C)(=O)=O)nc1N1CCCC(n2nc(-c3ccc(Oc4ccccc4)cc3)c3c(N)ncnc32)C1 (stereo not shown)")
100

Asked: Provide remaining binding at 1 µM, tested on TNK2 (Homo sapiens), for COC(=O)c1cnc(S(C)(=O)=O)nc1N1CCCC(n2nc(-c3ccc(Oc4ccccc4)cc3)c3c(N)ncnc32)C1 (stereo not shown) .
Given back: 100

Asked: Print TNK2 (Homo sapiens) remaining binding at 1 µM for Cc1cnc(S(C)(=O)=O)nc1N1CCCC(n2nc(-c3ccc(Oc4ccccc4)cc3)c3c(N)ncnc32)C1 (stereo not shown) .
Given back: 96

* * *

Parameter difference in %Control versus compound Ib at 1 µM: see the listing below.
molecular target: EPHA2 (Homo sapiens); construct: purchased Eurofins DiscoverX KINOMEscan (scanTK); experiment: KINOMEscan ScanTK; type: binding; conditions: @1000nM
Sequence (P29317 24-976): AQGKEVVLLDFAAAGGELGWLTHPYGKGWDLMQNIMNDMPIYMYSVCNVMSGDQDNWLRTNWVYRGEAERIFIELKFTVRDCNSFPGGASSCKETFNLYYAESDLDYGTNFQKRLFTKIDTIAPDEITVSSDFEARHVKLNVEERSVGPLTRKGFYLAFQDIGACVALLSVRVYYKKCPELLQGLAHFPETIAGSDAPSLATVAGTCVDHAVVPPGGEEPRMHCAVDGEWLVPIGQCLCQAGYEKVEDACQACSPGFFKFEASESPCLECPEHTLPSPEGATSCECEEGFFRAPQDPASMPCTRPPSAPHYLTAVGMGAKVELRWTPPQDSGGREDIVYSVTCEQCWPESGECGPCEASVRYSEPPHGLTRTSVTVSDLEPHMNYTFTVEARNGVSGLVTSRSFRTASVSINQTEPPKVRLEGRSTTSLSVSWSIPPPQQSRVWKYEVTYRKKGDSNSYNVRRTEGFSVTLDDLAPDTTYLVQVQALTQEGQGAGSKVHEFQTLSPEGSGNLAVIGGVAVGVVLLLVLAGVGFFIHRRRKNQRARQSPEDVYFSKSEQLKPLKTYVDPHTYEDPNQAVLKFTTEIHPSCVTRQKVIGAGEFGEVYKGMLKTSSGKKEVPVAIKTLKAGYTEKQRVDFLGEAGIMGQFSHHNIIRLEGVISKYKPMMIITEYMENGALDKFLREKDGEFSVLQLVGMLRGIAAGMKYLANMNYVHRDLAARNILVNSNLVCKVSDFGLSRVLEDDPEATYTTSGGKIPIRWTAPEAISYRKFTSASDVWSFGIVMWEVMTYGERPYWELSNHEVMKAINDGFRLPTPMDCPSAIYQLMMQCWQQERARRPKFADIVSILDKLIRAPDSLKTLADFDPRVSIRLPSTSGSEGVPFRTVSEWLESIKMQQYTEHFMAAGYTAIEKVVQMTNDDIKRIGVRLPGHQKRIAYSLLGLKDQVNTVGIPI
The response must be a number in % with no trailing unit.

Some entries whose results are on file:
>>> test_value("Cc1cnc(S(C)(=O)=O)nc1N1CCCC(n2nc(-c3ccc(Oc4ccccc4)cc3)c3c(N)ncnc32)C1 (stereo not shown) [Compound 8a]")
-12
>>> test_value("CCOC(=O)c1cnc(S(C)(=O)=O)nc1N1CCC[C@@H](n2nc(-c3ccc(Oc4ccccc4)cc3)c3c(N)ncnc32)C1 [Compound 8c]")
-2

Asked: Supply measured difference in %Control versus compound Ib at 1 µM of COC(=O)c1cnc(S(C)(=O)=O)nc1N1CCCC(n2nc(-c3ccc(Oc4ccccc4)cc3)c3c(N)ncnc32)C1 (stereo not shown) [Compound 8b] in your reply.
Given back: -1

Asked: Give the reported difference in %Control versus compound Ib at 1 µM for this molecule. CNC(=O)c1cnc(S(C)(=O)=O)nc1N1CCCC(n2nc(-c3ccc(Oc4ccccc4)cc3)c3c(N)ncnc32)C1 (stereo not shown) [Compound 8d]
Given back: -2

* * *

target: ERBB3 (Homo sapiens, UniProt P21860); construct: purchased Eurofins DiscoverX KINOMEscan (scanTK); assay: KINOMEscan ScanTK; type: binding; details: @1000nM; ERBB3
Sequence (P21860 20-1342): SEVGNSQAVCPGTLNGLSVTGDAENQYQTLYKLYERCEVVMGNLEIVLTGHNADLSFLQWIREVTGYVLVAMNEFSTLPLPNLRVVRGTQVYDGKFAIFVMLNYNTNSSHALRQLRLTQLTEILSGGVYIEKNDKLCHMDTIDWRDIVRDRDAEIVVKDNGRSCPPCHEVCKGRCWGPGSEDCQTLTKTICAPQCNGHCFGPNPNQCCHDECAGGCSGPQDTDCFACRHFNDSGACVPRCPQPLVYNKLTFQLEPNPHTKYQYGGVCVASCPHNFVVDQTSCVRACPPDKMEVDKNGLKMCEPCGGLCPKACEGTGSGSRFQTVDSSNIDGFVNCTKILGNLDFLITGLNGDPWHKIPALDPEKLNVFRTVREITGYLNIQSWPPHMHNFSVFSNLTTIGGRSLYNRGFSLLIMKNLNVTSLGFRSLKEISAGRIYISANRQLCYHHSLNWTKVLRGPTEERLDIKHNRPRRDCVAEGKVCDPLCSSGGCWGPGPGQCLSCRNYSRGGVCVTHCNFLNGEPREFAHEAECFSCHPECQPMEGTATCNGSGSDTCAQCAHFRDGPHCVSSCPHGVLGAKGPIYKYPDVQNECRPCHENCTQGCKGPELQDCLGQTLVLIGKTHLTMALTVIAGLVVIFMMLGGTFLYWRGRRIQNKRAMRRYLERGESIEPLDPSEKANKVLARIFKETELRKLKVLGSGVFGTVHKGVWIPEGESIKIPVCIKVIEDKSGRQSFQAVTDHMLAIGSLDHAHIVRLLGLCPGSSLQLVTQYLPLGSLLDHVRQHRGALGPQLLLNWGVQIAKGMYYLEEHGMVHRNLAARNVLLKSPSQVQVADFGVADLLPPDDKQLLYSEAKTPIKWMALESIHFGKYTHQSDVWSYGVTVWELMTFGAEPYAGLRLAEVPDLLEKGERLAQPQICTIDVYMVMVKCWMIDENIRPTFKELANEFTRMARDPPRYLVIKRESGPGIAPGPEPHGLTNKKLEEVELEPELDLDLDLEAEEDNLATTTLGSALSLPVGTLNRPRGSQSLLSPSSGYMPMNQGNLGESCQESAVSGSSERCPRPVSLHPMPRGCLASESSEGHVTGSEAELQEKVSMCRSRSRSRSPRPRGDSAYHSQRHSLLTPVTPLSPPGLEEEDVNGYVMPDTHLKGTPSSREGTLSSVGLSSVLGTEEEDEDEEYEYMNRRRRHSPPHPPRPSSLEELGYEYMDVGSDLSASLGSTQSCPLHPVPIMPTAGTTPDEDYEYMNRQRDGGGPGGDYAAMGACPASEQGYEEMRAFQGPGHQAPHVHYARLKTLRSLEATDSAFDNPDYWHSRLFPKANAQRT
Consider the following compounds and their measured % of control difference from compound Ib at 1 µM readings.
Number in %, nothing else.

Example cases with answers are listed next.
>>> test_value("COC(=O)c1cnc(S(C)(=O)=O)nc1N1CCCC(n2nc(-c3ccc(Oc4ccccc4)cc3)c3c(N)ncnc32)C1 (stereo not shown)")
2.3
>>> test_value("Cc1cnc(S(C)(=O)=O)nc1N1CCCC(n2nc(-c3ccc(Oc4ccccc4)cc3)c3c(N)ncnc32)C1 (stereo not shown)")
0
>>> test_value("CCOC(=O)c1cnc(S(C)(=O)=O)nc1N1CCC[C@@H](n2nc(-c3ccc(Oc4ccccc4)cc3)c3c(N)ncnc32)C1")
39

Asked: State, in one line, measured % of control difference from compound Ib at 1 µM of CNC(=O)c1cnc(S(C)(=O)=O)nc1N1CCCC(n2nc(-c3ccc(Oc4ccccc4)cc3)c3c(N)ncnc32)C1 (stereo not shown)
Given back: 8.9

* * *

Reported remaining binding at 1 µM values are given for each entry in this list.
molecular target: ABL1(H396P)-phosphorylated (Homo sapiens, UniProt P00519, H396P); construct: purchased Eurofins DiscoverX KINOMEscan (scanTK); experiment: KINOMEscan ScanTK; format: binding; settings: @1000nM, read-out: %Control
Value expressed in %; do not type the unit.

Consider the worked cases shown below.
>>> test_value("COC(=O)c1cnc(S(C)(=O)=O)nc1N1CCCC(n2nc(-c3ccc(Oc4ccccc4)cc3)c3c(N)ncnc32)C1 (centres unmarked)")
92
>>> test_value("CCOC(=O)c1cnc(S(C)(=O)=O)nc1N1CCC[C@@H](n2nc(-c3ccc(Oc4ccccc4)cc3)c3c(N)ncnc32)C1")
77
>>> test_value("Cc1cnc(S(C)(=O)=O)nc1N1CCCC(n2nc(-c3ccc(Oc4ccccc4)cc3)c3c(N)ncnc32)C1 (centres unmarked)")
84
>>> test_value("C=CC(=O)N1CCC[C@@H](n2nc(-c3ccc(Oc4ccccc4)cc3)c3c(N)ncnc32)C1 [Compound 1g, Ibrutinib, reference compound]")
80

Asked: Quote ABL1(H396P)-phosphorylated (Homo sapiens, UniProt P00519, H396P) remaining binding at 1 µM for entry CNC(=O)c1cnc(S(C)(=O)=O)nc1N1CCCC(n2nc(-c3ccc(Oc4ccccc4)cc3)c3c(N)ncnc32)C1 (centres unmarked) .
Given back: 79

* * *

molecular target: KIT(D816V) (Homo sapiens, UniProt P10721, D816V); construct: purchased Eurofins DiscoverX KINOMEscan (scanTK); assay: KINOMEscan ScanTK; assay type: binding; conditions: read-out: %Control @1000nM
measured property: remaining binding at 1 µM (%)
Respond with the bare value in %.

// worked examples, remaining binding at 1 µM included
>>> test_value("CCOC(=O)c1cnc(S(C)(=O)=O)nc1N1CCC[C@@H](n2nc(-c3ccc(Oc4ccccc4)cc3)c3c(N)ncnc32)C1 [Compound 8c]")
85
>>> test_value("C=CC(=O)N1CCC[C@@H](n2nc(-c3ccc(Oc4ccccc4)cc3)c3c(N)ncnc32)C1 [Compound 1g, Ibrutinib, reference compound]")
86
>>> test_value("Cc1cnc(S(C)(=O)=O)nc1N1CCCC(n2nc(-c3ccc(Oc4ccccc4)cc3)c3c(N)ncnc32)C1 (centres unmarked) [Compound 8a]")
74
>>> test_value("CNC(=O)c1cnc(S(C)(=O)=O)nc1N1CCCC(n2nc(-c3ccc(Oc4ccccc4)cc3)c3c(N)ncnc32)C1 (centres unmarked) [Compound 8d]")
84

Let's switch to this compound now.
Asked: Provide KIT(D816V) (Homo sapiens, UniProt P10721, D816V) remaining binding at 1 µM reading for COC(=O)c1cnc(S(C)(=O)=O)nc1N1CCCC(n2nc(-c3ccc(Oc4ccccc4)cc3)c3c(N)ncnc32)C1 (centres unmarked) [Compound 8b] .
Given back: 85

Attribution: paper PMC11345841
